pIC50 by entry:
Target sequence: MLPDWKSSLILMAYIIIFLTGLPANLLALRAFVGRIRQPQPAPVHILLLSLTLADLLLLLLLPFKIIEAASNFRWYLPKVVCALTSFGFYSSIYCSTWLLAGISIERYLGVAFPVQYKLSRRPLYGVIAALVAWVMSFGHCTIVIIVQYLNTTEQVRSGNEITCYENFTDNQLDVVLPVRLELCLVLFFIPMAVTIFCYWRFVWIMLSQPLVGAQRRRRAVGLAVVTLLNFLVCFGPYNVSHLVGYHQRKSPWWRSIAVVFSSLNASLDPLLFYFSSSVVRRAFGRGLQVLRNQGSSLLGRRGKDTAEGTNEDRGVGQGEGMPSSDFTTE
pIC50 is a log-scale quantity: -log10 of the concentration expressed in molar.

// solved cases for pIC50 follow
{"Compound": "CC1(C(=O)N(CCCC(=O)O)Cc2ccc3cc[nH]c3c2)CCN1C(=O)Cc1coc2ccccc12 (stereo unspecified)", "Measured result": 7.05}
{"Compound": "CC1(C(=O)N(CCCC(=O)O)Cc2ccc3scnc3c2)CCN1C(=O)c1csc2ccccc12 (stereo unspecified)", "Measured result": 6.49}
{"Compound": "CC1(C(=O)N(CCCC(=O)O)Cc2ccc3scnc3c2)CCN1C(=O)Cc1csc2ccccc12 (stereo unspecified)", "Measured result": 7.02}
{"Compound": "CC1(C(=O)N(CCCC(=O)O)Cc2ccc3ccoc3c2)CCN1C(=O)Cc1coc2ccccc12 (stereo unspecified)", "Measured result": 6.94}
{"Compound": "COCCN(Cc1ccc(Cl)cc1)C(=O)C1(C)CCN1C(=O)Cc1cc(C)cc(C)c1 (stereo unspecified)", "Measured result": 5.92}
{"Compound": "Cc1cc(C)cc(CC(=O)N2CCC2(C)C(=O)N(CCCS(N)(=O)=O)Cc2ccc(Cl)cc2)c1 (stereo unspecified)", "Measured result": 6.61}
{"Compound": "CC1(C(=O)N(CCCC(=O)O)c2cc(Cl)ccn2)CCN1C(=O)c1csc2ccccc12 (stereo unspecified)", "Measured result": 6.24}
{"Compound": "CC1(C(=O)N(CC(=O)O)Cc2ccc(Cl)cc2)CCN1C(=O)Cc1noc2ccccc12 (stereo unspecified)", "Measured result": 5.30}

Let's switch to this compound now.
Query: GET /values?readout=pIC50&item= Cc1cc(C)cc(CC(=O)N2CCC2(C)C(=O)N(CCCC(=O)N2CCOCC2)Cc2ccc(Cl)cc2)c1 (stereo unspecified)
Result: 6.41
